Source listed as patent US7601754B2.

Assay: Stoichiometric measurements: ESR, reduction of excess galvinoxyl radical
Type: physicochemical
Conditions: galvinoxyl radicals reduced per molecule; ethanol, flavonoid 0.1 mM + galvinoxyl 0.5 mM, 5 minutes from mixing
METRIC: Reaction Stoichiometry for the reduction of galvinoxyl radical

COMPOUND: COc1cc(-c2oc3cc(O)cc(O)c3c(=O)c2O)cc(OC)c1OC [Tri-Ome-Myricetin, myricetin-3′,4′,5′-trimethylether]
QUANTITATIVE_RESULT: 1.06
//
COMPOUND: COc1ccc(-c2oc3cc(O)cc(O)c3c(=O)c2O)cc1O [Tamarixetin]
QUANTITATIVE_RESULT: 1.14
//
COMPOUND: O=c1c(O)c(-c2ccccc2O)oc2cc(O)cc(O)c12 [Datiscetin]
QUANTITATIVE_RESULT: 1.74
//
COMPOUND: O=c1c(O)c(-c2ccc(O)c(O)c2)oc2cc(O)ccc12 [Fisetin]
QUANTITATIVE_RESULT: 3.68
//
COMPOUND: Cc1c(C)c2c(c(C)c1O)CC[C@@](C)(CCC[C@H](C)CCC[C@H](C)CCCC(C)C)O2 [Vitamin E, d-(2R,4′R,8′R)-α-Tocopherol]
QUANTITATIVE_RESULT: 2.14
//
COMPOUND: O=c1c(O)c(-c2ccccc2)oc2cc(O)cc(O)c12 [Galangin]
QUANTITATIVE_RESULT: 1.01
//
COMPOUND: O=c1c(O)c(-c2ccc(O)c(O)c2)oc2cc(O)cc(O)c12 [Quercetin]
QUANTITATIVE_RESULT: 3.27
//
COMPOUND: O=c1cc(-c2ccc(O)c(O)c2)oc2cc(O)cc(O)c12 [Luteolin]
QUANTITATIVE_RESULT: 3.24

---

List of TBARS production (Mean) values.
Test system: rat liver microsomes from vitamin E-deficient rats
Assay: Inhibition of TBARS production in rat liver microsomes from vitamin E-deficient rats
Type: biochemical
Settings: after 20 minutes incubation with Fe(II)-ADP/ascorbate, normalised to a tocopherol reading of 20; 30 minutes pre-incubation; higher reading = lower protection
Experimental: Inhibition of TBARS production in rat liver microsomes from vitamin E-deficient rats by pre-incubation with target antioxidant and related compounds. Microsomes are subcellular fractions containing membrane fragments. […] This can be quantified in terms of the production of thiobarbituric acid reactive substances (TBARS) which result from radical-mediated destruction of the polyunsaturated fatty acid constituents. […] TBARS production was then measured by HPLC.

COMPOUND: CCCCCCCCCCc1ccc2c(=O)c(O)c(-c3cc(O)c(O)cc3O)oc2c1 [compound 13g, 3,2′,4′,5′-tetrahydroxy-7-decyl-flavone]
TBARS production (Mean): 20.1401

COMPOUND: O=c1c(O)c(-c2cc(O)c(O)cc2O)oc2ccccc12 [Control C]
TBARS production (Mean): 186.6221

COMPOUND: O=c1c(O)c(-c2ccc(O)c(O)c2O)oc2ccccc12 [Control D]
TBARS production (Mean): 172.0899

COMPOUND: CCCCCCCCCCCCCCCCCCc1ccc2c(=O)c(O)c(-c3cc(O)c(O)c(O)c3)oc2c1 [compound 9j]
TBARS production (Mean): 107.849

---

Experiment: Stoichiometric measurements: ESR, reduction of excess galvinoxyl radical
Assay type: physicochemical
Settings: galvinoxyl radicals reduced per molecule; ethanol, flavonoid 0.1 mM + galvinoxyl 0.5 mM, 5 minutes from mixing
List of Reaction Stoichiometry for the reduction of galvinoxyl radical values.
METRIC: Reaction Stoichiometry for the reduction of galvinoxyl radical

COMPOUND: O=c1c(O)c(-c2ccc(O)cc2O)oc2cc(O)cc(O)c12
QUANTITATIVE_RESULT: 1.83

COMPOUND: COc1ccc([C@@H]2CC(=O)c3c(O)cc(O)cc3O2)cc1O
QUANTITATIVE_RESULT: 0.20

COMPOUND: O=c1c(O)c(-c2cc(O)c(O)c(O)c2)oc2cc(O)cc(O)c12
QUANTITATIVE_RESULT: 4.08

COMPOUND: O=C1c2c(O)cc(O)cc2O[C@H](c2ccc(O)c(O)c2)[C@H]1O (racemic)
QUANTITATIVE_RESULT: 2.82
